System: Mycobacterium tuberculosis
method.summary: Antitubercular activity against serine beta-lactamase producing Mycobacterium tuberculosis H37Rv after 14 days in presence of GAST/Fe medium by eleven fold serial dilution method
Type: functional
condition.description: 336 h
measured.quantity: MIC99 (µg/mL)
Give bare numbers, in µg/mL.

# annotated cases, reported MIC99 shown
COc1ccc(S[C@H]2CC(=O)N2C(=O)N[C@@H](C)c2ccccc2)cc1 : 25
COc1ccc(S[C@@H]2CC(=O)N2C(=O)N[C@@H](C)c2ccccc2)cc1 : 25
C[C@H](NC(=O)N1C(=O)C[C@@H]1Sc1ccc(F)cc1F)c1ccccc1 : 0.7
NNC(=O)c1ccncc1 [ISONIAZID] : 0.02

# input for lookup
Inquiry: Read off the recorded MIC99 for `C[C@@H](NC(=O)N1C(=O)C[C@H]1Sc1ccc(F)cc1Cl)c1ccccc1`
Reply text: 1.5
